- PROTOCOL_TEXT: qHTS Assay for Lipid Storage Modulators in Drosophila S3 Cells;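 on cell number change: cells counted by Cell Tracker Red CMTPX staining in the red channel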
- CONDITION_DETAILS: BODIPY lipid droplet fluorescence, 18-24 h, cells fed with added oleic acid; measured here: cell count max response
Among all 320,000 compounds or so, about 2,100 (0.66%) were called active. Another 53% or so got no clear call; they are omitted. For the sample, actives were picked, then their nearest neighbours and some compounds at random.

| MOLECULE | cell number change / % |
| --- | --- |
| COC(=O)C1(CCSC)NC(c2ccc(O)cc2)C2C(=O)N(c3ccc4c(c3)OCCO4)C(=O)C21 (stereo unspecified) | 9.07 |
| COC(=O)C1CSc2[nH]c(=O)sc2C1c1ccc(OC)c(OC)c1 (stereo unspecified) | -7 |
| O=C(NCCN1C(=O)S/C(=C\c2cccc(Cl)c2Cl)C1=O)C1=COCCO1 | -26.2 |
| CCCCCCN1C2=NCCCN2c2ccccc21 | -6.55 |
| COc1ccccc1/C=C/C(=O)OCC(=O)NCc1ccco1 | 4.89 |
| O=C(Cc1ccccc1)NCC(=O)N/N=C/c1ccc([N+](=O)[O-])s1 | 17.1 |
| CCOC(=O)C1(C)NC(c2ccc(O)cc2)C2C(=O)N(c3ccccc3)C(=O)C21 (stereo unspecified) | 13.7 |
| O=[N+]([O-])c1cccc(S(=O)(=O)N2CCCCC2)c1 | 2.7 |
| O=C(CCCN1C(=O)/C(=C/c2ccccc2Cl)SC1=S)NCCCN1CCOCC1 | 16.8 |
| CCOC(=O)N1CCN(C(=O)CCCn2c(=S)[nH]c3ccsc3c2=O)CC1 | -21.6 |
| Nc1nnnn1CC(=O)OCc1cccc(Br)c1 | 4.89 |
| O=C(CN1C(=O)COc2ccccc21)Nc1ccc2c(c1)OCCO2 | 3.43 |
| CC(NC(=O)c1cc(S(=O)(=O)N2CCCC2)ccc1Cl)c1ccccn1 (stereo unspecified) | 12.8 |
| COCCN(C(=O)CCC(=O)Nc1nccs1)C(C(=O)NC(C)(C)C)c1ccc(F)cc1 (stereo unspecified) | 9.66 |
| CC(C)C(C(=O)Nc1ccc2c(c1)OCO2)N1C(=O)c2ccccc2C1=O (stereo unspecified) | -19.4 |
| CCC(C)(C)NC(=O)C(c1ccc(O)cc1)N(CCOC)C(=O)CCC(=O)Nc1nccs1 (stereo unspecified) | -13.3 |
| Cc1ccc(C(=O)N/C(=C\c2cccs2)C(=O)NCc2cccnc2)cc1 | 10.4 |
| CCc1ccc(C(C(=O)NCc2ccc(F)cc2)N(C(=O)c2csnn2)C2CC2)cc1 (stereo unspecified) | -0.952 |
| O=C(NN1CCOCC1)c1cc(-c2ccc(Br)s2)nc2ccccc12 | 18.5 |
| O=C(CCc1nc2ccccc2c(=O)[nH]1)NCCN1C(=O)S/C(=C\c2ccc(Cl)cc2Cl)C1=O | 1.43 |
| CCCC1(C(=O)OCC)NC(c2ccc(N(C)C)cc2)C2C(=O)N(c3ccc4c(c3)OCCO4)C(=O)C21 (stereo unspecified) | 7.42 |

###

- PROTOCOL_TEXT: qHTS Assay for Lipid Storage Modulators in Drosophila S3 Cells
- CONDITION_DETAILS: BODIPY lipid droplet fluorescence, 18-24 h, cells fed with added oleic acid; series mostly up to 46.1 µM
- Source text: NIH Molecular Libraries Probe Production Centers Network [MLPCN] NIH Chemical Genomics Center [NCGC] […] Triacsin C (Sigma-Aldrich T-4540), an inhibitor of long-chain fatty acyl CoA synthetase that blocks synthesis of triglycerides, was used as a positive control for lipid under-storage. […] Fluorescence was detected by excitation of the fluorophores with a 488-nm laser on an Acumen Explorer (TTP Lab Tech). […] Cells were detected using channel 3 (575-640 nm) with 5-um width and 100-um depth filters. […]
Hit rate of the full screen: of about 320,000 compounds, about 2,100 (0.66%) were called active. About 53% were inconclusive and are not listed. The call rests on the fitted dose curve; in most records, active means well fitted inhibition curve with a large enough effect in the signal ratio, with a control signal flat (not every such curve was filed as active); inconclusive means small, poorly fitted or top-dose-only effect, or effect the other way, or a change in a side signal; inactive means flat fitted curve, though single readings scatter; the % refers to the signal ratio. The sample as a whole holds a higher share of actives than the screen did.
Outcome codes: active, inactive

| MOLECULE | ASSIGNED_LABEL |
| --- | --- |
| CC(=O)NCCc1nc2ccccc2n1Cc1ccccc1 | inactive |
| CCOc1cc(/C=C(\C#N)c2nc3ccccc3[nH]2)ccc1OC(C)C(=O)O (stereo not given) | inactive |
| C=CCSc1nnc(NC(=O)C2CC(=O)N(Cc3ccc(C)cc3)C2)s1 (stereo not given) | inactive |
| Cc1ccc(N=Nc2c(O)[nH]c3ccc(F)cc23)cc1 | active |
| CC1CCc2nn(CC(=O)NCc3ccco3)cc2C1 (stereo not given) | inactive |
| CCN(CC)c1ccc(/C=C(/C#N)c2nc3ccccc3[nH]2)c(OC(C)C)c1 | active |
| O=C(CN1CCCC1)N1c2ccccc2C=Cc2ccccc21 | inactive |
| Cc1cc(-c2nnc(CCC(=O)N(C)CCc3ccccc3)o2)no1 | inactive |
| CCC(C)(CC(=O)Nc1nccs1)c1ccccc1 (stereo not given) | inactive |
| CCC(C)C1NC(=S)N(C2CCCCC2)C1=O (stereo not given) | inactive |
| O=C(COc1ccccc1[N+](=O)[O-])Nc1cc(C(=O)O)cc(C(=O)O)c1 | inactive |
| O=C(CN1CCN(S(=O)(=O)N2CCOCC2)CC1)Nc1cc(Cl)cc(Cl)c1 | inactive |
| Cc1nc(-c2ccccc2)sc1-c1nc(-c2ccncc2)ncc1S(=O)(=O)c1ccccc1 | inactive |
| COc1ccc(NC(=O)c2ccc(C(=O)Nc3ccc(OC)cc3OC)cc2)c(OC)c1 | inactive |
| Cc1ccc2nc(SC(C)C(=O)N3CCCC3)[nH]c2c1 (stereo not given) | inactive |
| COc1ccc(NC(=O)CN2CCC(C(=O)c3ccc(F)cc3)CC2)c(OC)c1 | inactive |
| Cc1sc2ncnc(SCC(=O)Nc3ccc(CN4CCCC4)cc3)c2c1C | inactive |
| O=C(CC1Sc2ccccc2NC1=O)Nc1cccc(-c2nnc3n2CCCCC3)c1 (stereo not given) | inactive |
| CCC(Sc1nc2ccc(C)cc2[nH]1)C(=O)O (stereo not given) | active |
| COc1ccc(NC(=O)CN2CCN(CC(=O)Nc3ccc(F)cc3)CC2)c(OC)c1 | active |
| CCOC(=O)c1c(NC(=O)c2ccc(C)cc2)sc2c1CC(C)(C)NC2(C)C | inactive |
| CC(Oc1ccc(Br)cc1)C(=O)Nc1ccc(N2CCOCC2)cc1N1CCOCC1 (stereo not given) | inactive |
| O=C(N/C(=C/c1ccccc1)C(=O)N1CCCCCC1)c1ccccc1 | inactive |
| CSCCC(NC(=O)c1ccco1)C(=O)N(C)CC(=O)Nc1c(Cl)cccc1Cl (stereo not given) | inactive |
| CC(C)C(C(=O)Nc1ccc2c(c1)OCO2)N1C(=O)c2ccccc2C1=O (stereo not given) | inactive |
| CCOC(=O)N1CCC(NC(=O)c2oc3c(F)cccc3c2C)CC1 | inactive |
| CCC(Sc1nc2ccccc2c(=O)[nH]1)C(=O)O (stereo not given) | inactive |
| Fc1ccccc1OCCCCN1CCCCC1 | inactive |
| Cc1cc(S(=O)(=O)NCC(C)C)ccc1OCC(=O)NCc1ccco1 | inactive |
| CCCN(CC1CC1)C(=O)COC(=O)c1oc2c(F)cccc2c1C | active |
| COc1ccc(CCNC(=O)c2ccco2)cc1OC | inactive |
| CCCCc1c(O)nc2sccn2c1=O | inactive |
| CC(C)=C1SC(N2CCN(c3cccc(Cl)c3)CC2)=NC1=O | inactive |
| COc1ccc(NS(=O)(=O)c2ccc(N3CC(O)=C(c4ccccc4)C3=N)cc2)cc1 | inactive |
| CCOc1ccc2oc(C(=O)OCC(=O)NC(=O)NC)c(C)c2c1 | inactive |
| COc1ccc(NC(=O)C(CC(C)C)NC(=O)C2CCCCC2)c(OC)c1 (stereo not given) | inactive |
| O=C(CCCCCNC(=O)c1ccccc1)N/N=C/c1ccccc1O | active |
| Oc1[nH]c2ccccc2c1N=Nc1c(F)c(F)c(Cl)c(F)c1F | inactive |
| CCCN(CC1CC1)C(=O)COC(=O)c1oc2ccc(OCC)cc2c1C | active |
| O=C(CN1CCN(c2ccccc2F)CC1)Nc1ccc2c(c1)CCC2 | inactive |
| O=C(CCCCCNC(=O)c1ccccc1)N/N=C/c1ccc(O)cc1O | inactive |
| Cc1cc(C)cc(C(=O)/C=C2\NC(=O)CS2)c1 | inactive |
| CC(=O)Nc1ccc(NC(=O)CSc2ncnc3sc(C)c(C)c23)cc1 | active |
| N#Cc1ccccc1OCC(=O)Nc1ccc2c(c1)OCCCO2 | inactive |
| CC1(C)C([N+](=O)[O-])C(c2ccc(F)cc2)NC(c2ccc(F)cc2)C1[N+](=O)[O-] (stereo not given) | inactive |
